Provenance of the data: ChEMBL document CHEMBL1201862

- system-under-test: Sentrin-specific protease 7 (Homo sapiens, UniProt Q9BQF6);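 further: Luminescence-based dose-response confirmation of ultra-high-throughput screening hits, measuring inhibition of SENP7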
- Sequence (Q9BQF6 whole entry): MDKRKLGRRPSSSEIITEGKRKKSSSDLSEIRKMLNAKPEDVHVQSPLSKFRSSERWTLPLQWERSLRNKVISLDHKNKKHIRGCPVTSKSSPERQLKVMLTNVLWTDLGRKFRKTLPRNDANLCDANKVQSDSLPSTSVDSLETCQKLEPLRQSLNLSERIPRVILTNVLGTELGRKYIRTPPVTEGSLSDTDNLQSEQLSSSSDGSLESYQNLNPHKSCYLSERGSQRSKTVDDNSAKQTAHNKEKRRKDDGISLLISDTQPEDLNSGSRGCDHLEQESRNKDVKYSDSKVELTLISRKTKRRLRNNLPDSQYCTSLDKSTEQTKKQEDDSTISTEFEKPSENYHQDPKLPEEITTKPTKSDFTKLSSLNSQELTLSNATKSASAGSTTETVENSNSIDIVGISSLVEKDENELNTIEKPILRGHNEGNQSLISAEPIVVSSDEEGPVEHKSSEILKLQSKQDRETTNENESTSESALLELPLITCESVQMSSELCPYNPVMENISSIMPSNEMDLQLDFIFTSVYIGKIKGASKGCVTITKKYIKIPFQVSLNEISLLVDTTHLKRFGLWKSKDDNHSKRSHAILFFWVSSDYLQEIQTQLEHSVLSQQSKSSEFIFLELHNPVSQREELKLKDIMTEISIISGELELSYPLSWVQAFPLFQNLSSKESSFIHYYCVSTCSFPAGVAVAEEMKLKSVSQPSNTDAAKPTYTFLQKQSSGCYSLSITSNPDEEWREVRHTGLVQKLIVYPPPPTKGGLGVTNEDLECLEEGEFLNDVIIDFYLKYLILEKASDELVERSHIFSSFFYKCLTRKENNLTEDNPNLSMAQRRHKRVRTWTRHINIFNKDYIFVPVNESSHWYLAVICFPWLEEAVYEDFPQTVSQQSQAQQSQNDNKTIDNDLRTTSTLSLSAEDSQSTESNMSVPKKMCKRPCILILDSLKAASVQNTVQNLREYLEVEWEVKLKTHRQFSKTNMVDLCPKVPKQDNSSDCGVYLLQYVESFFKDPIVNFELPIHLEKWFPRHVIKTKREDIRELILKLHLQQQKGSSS
- Format: functional
Active and inactive are the calls of the source.
For each entry below, report its IC50 value.

Problem: Give the measured IC50 of COc1ccccc1NC(=O)CCSc1ccc(C)cc1 .
Result: 11.2 µM (active)

Problem: Consider next the compound COC(=O)c1ccc(N=Nc2ccccc2)cc1 in the same way.
Result: 5.11 µM (active)

Problem: Consider next the compound COc1cccc(NC(=O)C(S)=NC2CCCCC2)c1 in the same way.
Result: 5.39 µM (active)

Problem: Consider next the compound O=C(Nc1nc2ccccc2s1)c1ccc(Cl)s1 in the same way.
Result: 2.16 µM (active)
